// data source = the supplement of paper PMC9112550

Tested on: Escherichia coli TOP10
Assay details: shrunken log2 fold change of peptide-encoding DNA abundance (4.5 h post-induction vs induction); higher = less antimicrobial activity (less host growth inhibition)
Experimental context: time post-induction: 4.5 h; library: site-saturation at positions 5, 18, 19, 20
Where shrunken log2 fold change equals or exceeds -0.02, the correct label is TRUE; where it does not, the label is FALSE.

Determine whether this sequence has shrunken log2 fold change no lower than -0.02: RRIRNRPPRLPRPRPRPYGNPRP
FALSE

---

System: Escherichia coli TOP10
Assay details: shrunken log2 fold change of peptide-encoding DNA abundance (4.5 h post-induction vs induction); higher = less antimicrobial activity (less host growth inhibition)
Experimental context: time post-induction: 4.5 h; library: site-saturation at positions 5, 18, 19, 20
Metric: shrunken log2 fold change

Please review the following examples before continuing.
| Construct sequence | Metric | Experimental result |
| --- | --- | --- |
| RRIRTRPPRLPRPRPRPTHTPRP | shrunken log2 fold change | 0.0425 |
| RRIRWRPPRLPRPRPRPMFWPRP | shrunken log2 fold change | 0.324 |
| RRIRDRPPRLPRPRPRPATEPRP | shrunken log2 fold change | 0.646 |

What measured shrunken log2 fold change is associated with RRIRRRPPRLPRPRPRPNTVPRP on Escherichia coli TOP10?
-0.107

What measured shrunken log2 fold change is associated with RRIRPRPPRLPRPRPRPQYPPRP on Escherichia coli TOP10?
-0.133

What measured shrunken log2 fold change is associated with RRIRQRPPRLPRPRPRPTWTPRP on Escherichia coli TOP10?
-0.0772

What measured shrunken log2 fold change is associated with RRIRHRPPRLPRPRPRPFCQPRP on Escherichia coli TOP10?
-0.243

What measured shrunken log2 fold change is associated with RRIRWRPPRLPRPRPRPKSSPRP on Escherichia coli TOP10?
0.000999

What measured shrunken log2 fold change is associated with RRIRLRPPRLPRPRPRPISEPRP on Escherichia coli TOP10?
0.00295

---

shrunken log2 fold change for assorted sequences
Test system: Escherichia coli TOP10;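 further: peptides expressed intracellularly from a pBAD plasmid library in pooled LB shake-flask culture, induced with 0.3% L-arabinose, DNA abundance read by NGS, three biological replicates, DESeq2 with apeglm shrinkage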
Assay details: shrunken log2 fold change of peptide-encoding DNA abundance (4.5 h post-induction vs induction); higher = less antimicrobial activity (less host growth inhibition)
Experimental context: time post-induction: 4.5 h; library: site-saturation at positions 5, 18, 19, 20
A bare number is all that is needed in reply.

| Construct sequence | Experimental target | shrunken log2 fold change |
| --- | --- | --- |
| RRIRHRPPRLPRPRPRPVHVPRP | Escherichia coli TOP10 | -0.16 |
| RRIRHRPPRLPRPRPRPYMQPRP | Escherichia coli TOP10 | -0.476 |
| RRIRDRPPRLPRPRPRPDCDPRP | Escherichia coli TOP10 | 0.122 |
| RRIRDRPPRLPRPRPRPGGAPRP | Escherichia coli TOP10 | 0.806 |
| RRIRDRPPRLPRPRPRPRGVPRP | Escherichia coli TOP10 | 0.393 |
| RRIRVRPPRLPRPRPRPNDQPRP | Escherichia coli TOP10 | -0.0759 |
| RRIRKRPPRLPRPRPRPFPTPRP | Escherichia coli TOP10 | 2.75 |
| RRIRRRPPRLPRPRPRPGGNPRP | Escherichia coli TOP10 | 0.475 |
| RRIRARPPRLPRPRPRPLDCPRP | Escherichia coli TOP10 | 0.49 |
| RRIRFRPPRLPRPRPRPQQAPRP | Escherichia coli TOP10 | 0.366 |

For the sequence RRIRRRPPRLPRPRPRPSFQPRP , what shrunken log2 fold change is on record?
0.0356

For the sequence RRIRCRPPRLPRPRPRPSHIPRP , what shrunken log2 fold change is on record?
-0.637

For the sequence RRIRERPPRLPRPRPRPVHFPRP , what shrunken log2 fold change is on record?
0.0364

For the sequence RRIRCRPPRLPRPRPRPKPEPRP , what shrunken log2 fold change is on record?
0.377

For the sequence RRIRKRPPRLPRPRPRPGFQPRP , what shrunken log2 fold change is on record?
0.138
